Assay: Example 3 clinical trial: vortioxetine plasma levels and simulated AUC0-24
Assay type: in vivo
Settings: human, oral, 10 mg/day, day 0, PBO IV+VOR oral treated patients, popPK simulation based on observed data
value-type: AUC(0-t) (ng·h/mL)

compound-structure: Cc1ccc(Sc2ccccc2N2CCNCC2)c(C)c1
value-type: AUC(0-t)
observed-value: 47

###

Test: Example 3 clinical trial: vortioxetine plasma levels and simulated AUC0-24
Format: in vivo
Conditions: human, other: intravenous infusion plus oral tablets, VOR IV + VOR oral, Day 0, 8 hours
value-type: concentration at 8 h (ng/mL)

compound-structure: Cc1ccc(Sc2ccccc2N2CCNCC2)c(C)c1
observed-value: 11

###

Experiment: Example 3 clinical trial: vortioxetine plasma levels and simulated AUC0-24
Assay type: in vivo
Conditions: human, other: intravenous infusion plus oral tablets, VOR IV + VOR oral, Day 0, 2 hours
Experimental: Patients randomised to the vortioxetine IV dose regimen, received a single double-blind IV dose of 17 mg vortioxetine, infused over 2 hours, on Day 0 (baseline). Patients randomised to the vortioxetine oral dose regimen received a single double-blind IV dose of placebo (saline), infused over 2 hours, on Day 0. From Day 0 to Day 14, all patients in both treatment groups also received open labelled 10 mg/day vortioxetine by oral administration (tablets). […]

compound: Cc1ccc(Sc2ccccc2N2CCNCC2)c(C)c1 [VOR IV + VOR oral]
unit-of-measurement: ng/mL
concentration at 2 h: 11.1
